Listed here are molecules together with their documented TGI.
# System: K-562 leukemia
# MEASUREMENT_DESCRIPTION: NCI tumour cell line growth inhibition, 48 h

Guide cases for TGI, answers given:
MOLECULE: CS(=O)(=O)CCn1c(=O)c(Oc2ccc(F)cc2F)cc2cnc(NC3CCOCC3)nc21
TGI: > 25 µM
//
MOLECULE: COc1cc2c(cc1OCCCCCCCCN1C(=O)c3cccc4cccc(c34)C1=O)N=C[C@@H]1CCCN1C2=O
TGI: 23.1 µM
//
MOLECULE: CCCN1C(=O)CSC1=Nc1ccc2cc3ccc(N=C4SCC(=O)N4CCC)cc3nc2c1
TGI: > 100 µM
//
MOLECULE: O=C(O)C(O)C(O)C(O)C(=O)CO (stereo unspecified)
TGI: > 100 µM
//
MOLECULE: CC(C)(Oc1ccc2c(=O)cc(-c3ccccc3)oc2c1)C(=O)Nc1c(Cl)cccc1Cl
TGI: > 100 µM

Continue with the next molecule.
Record `COC(=O)c1nc(-c2nc(CCNC(=O)OC(C)(C)C)sc2Cl)sc1Cl` ; system K-562 leukemia; TGI = > 100 µM

###

Listed here are compounds together with their documented TGI.
# System: NCI-H226 lung
# MEASUREMENT_DESCRIPTION: NCI tumour cell line growth inhibition, 48 h
Numbers only here, please. The scale is µM.

COMPOUND: CC(=O)/C=C/C1=C(c2cccs2)c2ccccc2CC1
TGI / µM: 93.5

Note to self: TGI recorded for `CN1CCN(c2ccc(NC3=C(Cl)C(=O)c4ncccc4C3=O)cc2C#N)CC1` was 36.3

Note to self: TGI recorded for `Cc1cc(C)n(C(=O)c2nn(-c3ccc(Cl)cc3)cc2O)n1` was 98.9

Note to self: TGI recorded for C[N+](C)(C)CC(=O)N/N=C(/CC1OC(=O)c2ccccc21)c1ccccc1O (centres undefined) was 57.4

###

# Test system: PC-3 prostate
# MEASUREMENT_DESCRIPTION: NCI tumour cell line growth inhibition, 48 h
Listed here are molecules together with their documented TGI.
Numbers only here, please. The scale is µM.

Record `Cc1ccc2c(c1)O/C(=C\c1ccc([N+](=O)[O-])o1)C2=O` ; system PC-3 prostate; TGI = 5.15

Record CC(=O)OC1CCC2(C)C(=CCC3C4CCC5(OC6CC(C)CN(C(C)=O)C6C5C)C(C)=C4C(=O)C32)C1 (stereo not given) ; system PC-3 prostate; TGI = 28.6

###

# Tested on: SR leukemia
# MEASUREMENT_DESCRIPTION: NCI tumour cell line growth inhibition, 48 h
MEASUREMENT_LABEL: TGI

Guide cases for TGI, answers given:
COMPOUND: CC(=O)N/N=C1/CC[C@@]2(C)C(=CC[C@H]3C4CCC(C(C)CCCC(C)C)[C@@]4(C)CCC32)C1(C)C (some centres undefined)
TGI: > 100 µM
--
COMPOUND: C[C@]12C3CC[C@@]4(CO)C[C@]3(CCC1[C@](C)(C(=O)O)CC[C@@H]2O)CC4=O (some centres undefined)
TGI: > 100 µM
--
COMPOUND: CCOC(=O)c1[nH]c(CN(C)Cc2[nH]c(C(=O)OCC)c(C)c2C(=O)OCc2ccccc2)c(C(=O)OCc2ccccc2)c1C
TGI: > 100 µM
--
COMPOUND: Cn1c2ccccc2c(=O)c2c([N+](=O)[O-])ccc(NCCN)c21
TGI: > 100 µM

Record `CS(=O)(=O)CCn1c(=O)c(Oc2ccc(F)cc2F)cc2cnc(NC3CCOCC3)nc21` ; system SR leukemia; TGI = > 25 µM

Record CC(O)C(O)C(O)C(/C=N\Nc1ccccc1)=N/Nc1ccccc1 (centres undefined) ; system SR leukemia; TGI = 41.9 µM

Record `O=[N+]([O-])C(=C(Nc1ccccc1)Nc1ccccc1)/C(Cl)=C(\Cl)Br` ; system SR leukemia; TGI = 22.6 µM

Record `O[C@H]1[C@H]2[C@H](O)C[C@H](CCOCc3ccccc3)CN2C[C@H]1O` ; system SR leukemia; TGI = > 100 µM

Record `COc1cc(-c2cc(/C=C3\C(=O)Nc4ccccc43)[nH]n2)cc(OC)c1OC` ; system SR leukemia; TGI = 14.8 µM

###

# Tested on: TK-10 renal
# MEASUREMENT_DESCRIPTION: NCI tumour cell line growth inhibition, 48 h
Listed here are compounds together with their documented TGI.

Guide cases for TGI, answers given:
COMPOUND: COc1cc(C)c(C)c(OC(=O)c2c(C)c(C)c(OC)c(C)c2OC)c1C
TGI: > 100 µM
//
COMPOUND: N#CC(C(=N/NC(N)=S)/C(=N/NC(N)=S)C(C#N)c1ccc(Cl)cc1)c1ccc(Cl)cc1 (centres undefined)
TGI: > 100 µM
//
COMPOUND: O=C(O)c1cc(O)c2c(c1)C([C@@H]1c3cccc(O)c3C(=O)c3c(O)cc(C(=O)O)cc31)c1cccc(O)c1C2=O (some centres undefined)
TGI: > 100 µM

Continue with the next compound.
Note to self: TGI recorded for C=CCC(N[C@H](CO)c1ccccc1)c1cn(S(=O)(=O)c2ccc(C)cc2)c2ccccc12 (some centres undefined) was 18 µM

###

# Tested on: HCT-15 colon
# MEASUREMENT_DESCRIPTION: NCI tumour cell line growth inhibition, 48 h; in the data active = GI50 below about 0.43 µM; inactive = the rest
Lab note: assign the record to one of yes for active, no for inactive

COMPOUND: CC1SC(c2c(Cl)cccc2Cl)N(NC(=O)C(O)c2ccccc2)C1=O (stereo unspecified)
TESTED_ON: HCT-15 colon
ANSWER_LABEL: no

COMPOUND: O=C(Nc1ccccc1O)c1ccc(CNC(=O)c2sccc2Nc2ccnc(C(F)(F)F)c2)cc1
TESTED_ON: HCT-15 colon
ANSWER_LABEL: no

COMPOUND: Cc1cccc2c1O/C(=C\c1ccc([N+](=O)[O-])o1)C2=O
TESTED_ON: HCT-15 colon
ANSWER_LABEL: yes

COMPOUND: COc1ccc(-c2nnc(N3CCN(C(=O)CN4CCN(c5ccc(Cl)cc5)CC4)CC3)nc2-c2ccc(OC)cc2)cc1
TESTED_ON: HCT-15 colon
ANSWER_LABEL: no

COMPOUND: COc1ccc(C(=O)COc2cccc(/C=C3\CSc4ccc(Cl)cc4C3=O)c2)cc1
TESTED_ON: HCT-15 colon
ANSWER_LABEL: no

Problem: I would be grateful if you could indicate the recorded call for `O=C(CNc1ncco1)Nc1ccc(S(=O)(=O)c2ccc(NC(=O)CNc3ncco3)cc2)cc1` .
Result: no

Problem: I would be grateful if you could indicate the recorded call for COc1cc(C2=NN(c3ccc(S(N)(=O)=O)cc3)C(c3ccc(Cl)cc3)C2)cc(OC)c1OC (stereo unspecified) .
Result: no

Problem: I would be grateful if you could indicate the recorded call for `CCCCCCNc1nc(N2CCOCC2)c2[nH]c(NCCCCCC)nc2n1` .
Result: no

Problem: I would be grateful if you could indicate the recorded call for `N#C/C(N)=C(\C#N)N=Cc1csc2ccccc12` .
Result: no

Problem: I would be grateful if you could indicate the recorded call for `Cc1ccc2c(c1)O/C(=C\c1ccc([N+](=O)[O-])o1)C2=O` .
Result: yes

Problem: I would be grateful if you could indicate the recorded call for `CC(=O)/C=C/C1=C(c2cccs2)c2ccccc2CC1` .
Result: no

Problem: I would be grateful if you could indicate the recorded call for `CCCCCCC#CC#Cc1cccc(=O)o1` .
Result: no

Problem: I would be grateful if you could indicate the recorded call for `C/C1=C\C/C=C(\C)[C@H]2CC(CC/C(C)=C/CC1)[C@](C)(C=O)O2` .
Result: no

Problem: I would be grateful if you could indicate the recorded call for C[C@]12C3CC[C@@]4(CO)C[C@]3(CCC1[C@](C)(C(=O)O)CC[C@@H]2O)CC4=O (stereo partly specified) .
Result: no

Problem: I would be grateful if you could indicate the recorded call for `COc1ccc2c(c1)cn1c3ccc(O)cc3[nH]c(=O)c21` .
Result: yes

Problem: I would be grateful if you could indicate the recorded call for `O=C(Nc1cccc(O)c1)c1cccc(NC2=C(Cl)C(=O)N(Cc3ccccc3)C2=O)c1` .
Result: no

Problem: I would be grateful if you could indicate the recorded call for `COc1ccc(/C=C/C(=O)c2cc3c(N)c(C(=O)Nc4ccccc4C)sc3nc2C)cc1` .
Result: no

Problem: I would be grateful if you could indicate the recorded call for `O=C(Nc1ccc(Cl)cc1)c1cc(S(=O)(=O)Nc2nnc(-c3ccccc3)c(-c3ccccc3)n2)c(SCc2ccccc2)cc1Cl` .
Result: no

Problem: I would be grateful if you could indicate the recorded call for `CS(=O)(=O)CCn1c(=O)c(Oc2ccc(F)cc2F)cc2cnc(NC3CCOCC3)nc21` .
Result: no

Problem: I would be grateful if you could indicate the recorded call for `O=C1c2ccn(CCCCN3CCCCC3)c2C(=O)c2c1c(O)c1ccccc1c2O` .
Result: no

Problem: I would be grateful if you could indicate the recorded call for `CC(=O)c1cc2c(c3ccsc13)-c1ccccc1CC2` .
Result: no
